tested on: NIH3T3; test: Cytotoxic Profiling of Annotated Libraries Using Quantitative High-Throughput Screening (AID 1296008); settings: Five cell lines viability, CellTiter-Glo ATP luminescence, 48-72 h; stronger effect = lower value; note: % is set by controls: 0 for no effect and ±100 for the full control effect
Records with an inconclusive call do not appear.
Below, each entry is listed with its recorded max response.
Unit % implied. Number only.

Reference set, count: 10
INSERT INTO measurements (molecule, experimental_endpoint, readout_number) VALUES
  ('CCCCCNC(=O)N1CCC(CN(Cc2ccc(Cl)cc2)Cc2ccc([N+](=O)[O-])s2)C1 (stereo not drawn)', 'max response', -17.3),
  ('CC(C)(C)c1cc(C(=O)O)c(NC(=O)Nc2ccc3[nH]ncc3c2)s1', 'max response', -6.15),
  ('COc1ccc(-n2c(C)c([N+](=O)[O-])c3ccc(O)cc32)cc1', 'max response', 4.92),
  ('COc1ccc(-c2oc3c(CC=C(C)C)c(OC4O[C@H](CO)[C@@H](O)[C@H](O)[C@@H]4O)cc(O)c3c(=O)c2OC2O[C@@H](C)[C@H](O)[C@@H](O)[C@@H]2O)cc1 (stereo partly drawn)', 'max response', -16.5),
  ('OC[C@H]1O[C@@H](Oc2cc(O)cc(C=Cc3ccc(O)cc3)c2)[C@H](O)[C@@H](O)[C@H]1O', 'max response', 2.83),
  ('C=CCc1ccc(O)c(-c2ccc(O)c(CC=C)c2)c1', 'max response', -7.37),
  ('O=c1c(-c2ccc(O)cc2)coc2cc(O[C@@H]3O[C@H](CO)[C@H](O)[C@H](O)[C@H]3O)ccc12', 'max response', 1.51),
  ('Cn1cc(C=C2C(=O)Nc3cccnc32)c2ccccc21', 'max response', -5.8),
  ('NS(=O)(=O)c1ccc(NC2=CC(=O)c3ccccc3C2=O)cc1', 'max response', -17.3),
  ('COC(=O)N[C@H](C(=O)N1CCC[C@@H]1c1ncc(-c2ccc(-c3ccc(-c4cnc([C@@H]5CCCN5C(=O)[C@@H](NC(=O)OC)C(C)C)[nH]4)cc3)cc2)[nH]1)C(C)C', 'max response', 2.81);

Reported max response ( `Cc1[nH]c(C=C2C(=O)Nc3ccc(S(=O)(=O)Cc4c(Cl)cccc4Cl)cc32)c(C)c1C(=O)N1CCC[C@H]1CN1CCCC1` ) = -20.1

Recorded result, `Nc1ncnc2c1ncn2[C@@H]1O[C@H](CO)C[C@@H]1O` , max response: -2.75

// recorded max response for `CC=C(C)C(=O)O[C@H]1C(C)=C[C@]23C(=O)[C@@H](C=C(CO)[C@@H](O)[C@]12O)[C@H]1[C@@H](C[C@H]3C)C1(C)C` : -20.8

// field: max response; key: `NC(=O)c1cnc(-c2ccc(C3(N)CCC3)cc2)c(-c2ccccc2)c1` ; value = 4.42

Recorded max response (molecule CC(C)C(C)C=CC(C)C1CCC2C3=CC=C4CC(O)CCC4(C)C3CCC21C (stereo not drawn) ): -6.24

For record `O=C1NC(=O)C(=Cc2ccc(-c3ccc(F)cc3)o2)S1` the listed max response is -13.2

max response for CN1[C@@H]2CCC[C@@H]1CC(NC(=O)c1nn(C)c3ccccc13)C2 (stereo partly drawn) is 0.235

According to the records, this molecule `CCCCCCCCCCCC1=C(O)C(=O)C=C(O)C1=O` displays max response of -3.68
